Source: patent US20250134842A1

- tested on: nuclear receptor TLX (NR2E1) ligand-binding domain (Homo sapiens (Human), UniProt Q9Y466)
- Sequence (Q9Y466 155-383): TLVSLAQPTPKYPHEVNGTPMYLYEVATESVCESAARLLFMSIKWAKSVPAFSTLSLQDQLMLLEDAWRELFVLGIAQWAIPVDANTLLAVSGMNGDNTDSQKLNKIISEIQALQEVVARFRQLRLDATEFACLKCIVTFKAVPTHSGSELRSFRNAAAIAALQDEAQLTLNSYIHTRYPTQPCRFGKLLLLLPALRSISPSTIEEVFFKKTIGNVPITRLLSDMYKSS
- test details: AlphaScreen assay detecting TLX-RIP140 NR box peptide interaction
- Type: biochemical
- study conditions: relative to oleic acid = 100.0; read-out: Relative efficacy (%)
Assign Emax to each entry below.
The figure you give is taken to be in %; do not add the unit.

Request: Name the recorded Emax for CCCCCCC[C@@H](C)/C=C(/C)C/C(C)=C/[C@H](C)CCCC(=O)O [Compound 2-C] .
Response: 78.6

Request: I would be grateful if you could share the reported Emax for CCCCC[C@H](C)/C=C(/C)C/C(C)=C/[C@@H](C)CCCCCC(=O)O [Compound 3-F] .
Response: 71.4

Request: For CCC[C@H](C)/C=C(/C)C/C(C)=C/[C@H](C)CCCCCCCC(=O)O [Compound 4-E] , what is its reported Emax?
Response: 67.9

Request: What measured Emax goes with CCCCC[C@@H](C)/C=C(/C)C/C(C)=C/[C@H](C)CCCCCC(=O)O [Compound 3-C] ?
Response: 65.5

Request: Using the record for CCCCCCCCC[C@H](C)/C=C(/C)C/C(C)=C/[C@H](C)CC(=O)O [Compound 1-E] , report its Emax.
Response: 73.8

Request: Given the entry CCCCC[C@H](C)/C=C(/C)C/C(C)=C/[C@H](C)CCCCCC(=O)O [Compound 3-E] , report its measured Emax.
Response: 75

Request: Look up Emax: CCCCCCCCCC/C=C(/C)C/C(C)=C/[C@H](C)CC(=O)O [Compound 1-A]
Response: 72.6

Request: Can you share its Emax? I mean this compound: CCCCCCC[C@H](C)/C=C(/C)C/C(C)=C/[C@H](C)CCCC(=O)O [Compound 2-E]
Response: 69

Request: I am curious: what Emax value has been reported for CCCCCC/C=C(/C)C/C(C)=C/[C@@H](C)CCCCCC(=O)O [Compound 3-B] ?
Response: 78.6

Request: Which Emax is listed for CCCCCCC[C@@H](C)/C=C(/C)C/C(C)=C/[C@@H](C)CCCC(=O)O [Compound 2-D] ?
Response: 69

Request: Query (compound): CCCCC[C@@H](C)/C=C(/C)C/C(C)=C/[C@@H](C)CCCCCC(=O)O [Compound 3-D] ; field requested: Emax
Response: 72.6

Request: Query: Emax; subject: CCC[C@@H](C)/C=C(/C)C/C(C)=C/[C@@H](C)CCCCCCCC(=O)O [Compound 4-D]
Response: 73.8

Request: Look up Emax for this compound: CCCCCCCC/C=C(/C)C/C(C)=C/[C@@H](C)CCCC(=O)O [Compound 2-B]
Response: 78.6

Request: Recorded Emax of CCC[C@@H](C)/C=C(/C)C/C(C)=C/[C@H](C)CCCCCCCC(=O)O [Compound 4-C] , please.
Response: 73.8

Request: Endpoint output: Emax of CCCC/C=C(/C)C/C(C)=C/[C@H](C)CCCCCCCC(=O)O [Compound 4-A] . Value?
Response: 78.6

###

Hi there, I'd appreciate the recorded EC50 for every entry that follows.
- tested on: nuclear receptor TLX (NR2E1) ligand-binding domain (Homo sapiens (Human), UniProt Q9Y466)
- test details: AlphaScreen assay detecting TLX-RIP140 NR box peptide interaction
- study conditions: his-tagged TLX LBD, biotinylated RIP140-L6 peptide recruitment
Give the value, in units of nM, as a plain number.

Request: Look up EC50 for this compound: CCCCCCC[C@@H](C)/C=C(/C)C/C(C)=C/[C@H](C)CCCC(=O)O [Compound 2-C]
Response: 1500

Request: Requested read-out: EC50. Entry: CCCCCCCCCC/C=C(/C)C/C(C)=C/[C@H](C)CC(=O)O [Compound 1-A]
Response: 2200

Request: Reported EC50, compound CCC[C@H](C)/C=C(/C)C/C(C)=C/[C@@H](C)CCCCCCCC(=O)O [Compound 4-F] : ____
Response: 1900

Request: Find the recorded EC50 belonging to CCCCCC/C=C(/C)C/C(C)=C/[C@H](C)CCCCCC(=O)O [Compound 3-A] and report it.
Response: 1600

Request: What does the record list as EC50 for CCCCCCC[C@H](C)/C=C(/C)C/C(C)=C/[C@@H](C)CCCC(=O)O [Compound 2-F] ?
Response: 1600

Request: For CCCCC[C@@H](C)/C=C(/C)C/C(C)=C/[C@@H](C)CCCCCC(=O)O [Compound 3-D] , what is its reported EC50?
Response: 1200

Request: Field request: EC50 | item: CCCCC[C@H](C)/C=C(/C)C/C(C)=C/[C@H](C)CCCCCC(=O)O [Compound 3-E]
Response: 1000

###

- tested on: nuclear receptor TLX (NR2E1) ligand-binding domain (Homo sapiens (Human))
- test details: AlphaScreen assay detecting TLX-RIP140 NR box peptide interaction
- Type: biochemical
- study conditions: relative to oleic acid = 100.0; read-out: Relative efficacy (%)
- Source text: […]
value kind: Emax (%)
Output spec: scalar in %, unitless text.

Request: Query (compound): CCCCCCCCC[C@@H](C)/C=C(/C)C/C(C)=C/[C@@H](C)CC(=O)O ; field requested: Emax
Response: 84.5

Request: Quick one: Emax for CCCCCCCCC[C@H](C)/C=C(/C)C/C(C)=C/[C@@H](C)CC(=O)O ?
Response: 85.7

Request: Form field: reported Emax of CCC[C@H](C)/C=C(/C)C/C(C)=C/[C@@H](C)CCCCCCCC(=O)O
Response: 71.4

Request: I'd like to know its Emax. The compound in question is CCCC/C=C(/C)C/C(C)=C/[C@@H](C)CCCCCCCC(=O)O
Response: 84.5

Request: Quick check: Emax of CCCCCC/C=C(/C)C/C(C)=C/[C@H](C)CCCCCC(=O)O ?
Response: 77.4

Request: Param item = CCCCCCCCC[C@@H](C)/C=C(/C)C/C(C)=C/[C@H](C)CC(=O)O ; retrieve measured Emax.
Response: 81

Request: Entry CCCCCCC[C@H](C)/C=C(/C)C/C(C)=C/[C@@H](C)CCCC(=O)O : reported Emax = ?
Response: 72.6

Request: Name the recorded Emax for CCCCCCCC/C=C(/C)C/C(C)=C/[C@H](C)CCCC(=O)O .
Response: 78.6

Request: What value of Emax has been reported for the following compound? CCCCCCCCCC/C=C(/C)C/C(C)=C/[C@@H](C)CC(=O)O
Response: 77.4

###

Hi there, I'd appreciate the recorded Efficacy (fold increase) for every entry that follows.
- tested on: nuclear receptor TLX (NR2E1) ligand-binding domain (Homo sapiens (Human), UniProt Q9Y466)
- test details: AlphaScreen assay detecting TLX-RIP140 NR box peptide interaction
- Assay type: biochemical
- study conditions: his-tagged TLX LBD, biotinylated RIP140-L6 peptide recruitment
Form entry: value (fold) — number only.

Request: Record CCCCC[C@@H](C)/C=C(/C)C/C(C)=C/[C@@H](C)CCCCCC(=O)O : what is its Efficacy (fold increase) with nuclear receptor TLX (NR2E1) ligand-binding domain (Homo sapiens (Human), UniProt Q9Y466)?
Response: 6.1

Request: Item CCCCCC/C=C(/C)C/C(C)=C/[C@@H](C)CCCCCC(=O)O with nuclear receptor TLX (NR2E1) ligand-binding domain (Homo sapiens (Human), UniProt Q9Y466) - Efficacy (fold increase)?
Response: 6.6

Request: Record CCC[C@@H](C)/C=C(/C)C/C(C)=C/[C@@H](C)CCCCCCCC(=O)O : what is its Efficacy (fold increase) with nuclear receptor TLX (NR2E1) ligand-binding domain (Homo sapiens (Human), UniProt Q9Y466)?
Response: 6.2

Request: Please provide the recorded Efficacy (fold increase) for CCCCC[C@@H](C)/C=C(/C)C/C(C)=C/[C@H](C)CCCCCC(=O)O , tested on nuclear receptor TLX (NR2E1) ligand-binding domain (Homo sapiens (Human), UniProt Q9Y466).
Response: 5.5

Request: # value lookup — system nuclear receptor TLX (NR2E1) ligand-binding domain (Homo sapiens (Human), UniProt Q9Y466), readout Efficacy (fold increase), item CCCCCCCCC[C@H](C)/C=C(/C)C/C(C)=C/[C@@H](C)CC(=O)O
Response: 7.2

Request: Provide the documented Efficacy (fold increase) with nuclear receptor TLX (NR2E1) ligand-binding domain (Homo sapiens (Human), UniProt Q9Y466) as the system for CCCCCCCCCC/C=C(/C)C/C(C)=C/[C@@H](C)CC(=O)O
Response: 6.5

Request: Reported Efficacy (fold increase) for nuclear receptor TLX (NR2E1) ligand-binding domain (Homo sapiens (Human), UniProt Q9Y466), given CCCCC[C@H](C)/C=C(/C)C/C(C)=C/[C@H](C)CCCCCC(=O)O ?
Response: 6.3

Request: What measured Efficacy (fold increase) is associated with CCCCCCCCC[C@@H](C)/C=C(/C)C/C(C)=C/[C@@H](C)CC(=O)O on nuclear receptor TLX (NR2E1) ligand-binding domain (Homo sapiens (Human), UniProt Q9Y466)?
Response: 7.1
